I'd be grateful if you could share measured pKi for these entries.
biological target: Carbonic anhydrase 2 (Homo sapiens); test: Inhibition of recombinant human carbonic anhydrase 2 by stopped-flow CO2 hydration assay
pKi: −log10 of the molar value.

// solved cases for pKi follow
O=C(O)c1ccc(N/C=C(\C(=O)c2ccc(Cl)cc2)S(=O)(=O)c2ccccc2)cc1 ... < 4.00
O=C(O)c1ccc(N/N=C(/CS(=O)(=O)c2ccccc2)c2ccc(Br)cc2)cc1 ... < 4.00
O=C(O)c1ccc(N/N=C(\C(=O)c2ccccc2)S(=O)(=O)c2ccccc2)cc1 ... < 4.00

INPUT: Requested read-out: pKi. Entry: O=C(O)c1ccc(N/C=C(\C(=O)c2ccccc2)S(=O)(=O)c2ccccc2)cc1
OUTPUT: < 4.00

---

molecular target: Carbonic anhydrase 9 (Homo sapiens, UniProt Q16790); assay: Inhibition of recombinant human carbonic anhydrase 9 by stopped-flow CO2 hydration assay
measure: pKi
Answers are plain numbers, as −log10 of the molar value.

NS(=O)(=O)c1ccc(C(=O)N/N=C(/CS(=O)(=O)c2ccccc2)c2ccc(Br)cc2)cc1 ... 6.54
NS(=O)(=O)c1ccc(C(=O)N/N=C(/CS(=O)(=O)c2ccccc2)c2ccc(F)cc2)cc1 ... 5.95
NS(=O)(=O)c1ccc(C(=O)N/N=C(/CS(=O)(=O)c2ccccc2)c2ccccc2)cc1 ... 6.11
C/C(=N/NC(=O)c1ccc(S(N)(=O)=O)cc1)c1ccc(Cl)cc1 ... 6.50
C/C(=N/NC(=O)c1ccc(S(N)(=O)=O)cc1)c1ccccc1 ... 6.49
NS(=O)(=O)c1ccc(N/C=C(\C(=O)c2ccccc2)S(=O)(=O)c2ccccc2)cc1 ... 5.56
NS(=O)(=O)c1ccc(N/N=C(/CS(=O)(=O)c2ccccc2)c2ccc(Br)cc2)cc1 ... 6.04
NS(=O)(=O)c1ccc(C(=O)N/N=C\c2ccc(Br)cc2)cc1 ... 5.66
NS(=O)(=O)c1ccc(N/N=C(/CS(=O)(=O)c2ccccc2)c2ccccc2)cc1 ... 5.60
NS(=O)(=O)c1ccc(N/N=C(\C(=O)c2ccccc2)S(=O)(=O)c2ccccc2)cc1 ... 5.79

Please give pKi, item by item, for the list that follows.
1. C/C(=N/NC(=O)c1ccc(S(N)(=O)=O)cc1)c1ccc(Br)cc1
2. NS(=O)(=O)c1ccc(C(=O)N/N=C\c2ccc(F)cc2)cc1

OUTPUT:
6.02
5.63

Report pKi for every entry below.
1. NS(=O)(=O)c1ccc(N/C=C(\C(=O)c2ccc(Br)cc2)S(=O)(=O)c2ccccc2)cc1
2. NS(=O)(=O)c1ccc(C(=O)N/N=C\c2ccc(Cl)cc2)cc1

OUTPUT:
5.52
5.68

---

target: UniProtKB Q16790; test: Inhibition of recombinant human carbonic anhydrase 9 by stopped-flow CO2 hydration assay
Consider the following molecules; for each one, report its Ki.
Answers are plain numbers, in nM.

NS(=O)(=O)c1ccc(C(=O)N/N=C\c2ccccc2)cc1 ... 869
NS(=O)(=O)c1ccc(N/N=C(/CS(=O)(=O)c2ccccc2)c2ccc(Cl)cc2)cc1 ... 2910
NS(=O)(=O)c1ccc(N/C=C(\C(=O)c2ccc(Cl)cc2)S(=O)(=O)c2ccccc2)cc1 ... 3010
C/C(=N/NC(=O)c1ccc(S(N)(=O)=O)cc1)c1ccc(F)cc1 ... 1450

INPUT: Entry NS(=O)(=O)c1ccc(C(=O)N/N=C(/CS(=O)(=O)c2ccccc2)c2ccc(Cl)cc2)cc1 : reported Ki = ?
OUTPUT: 818
